tested on: TYK2(JH1domain-catalytic); conditions: concentration: 1 μM, replicates: in singlicate; n = 1
# %Inh annotations
Report the figure along with its unit, number first.

Examples from the recorded data:
| COMPOUND | READOUT_KIND | VAL |
| --- | --- | --- |
| FC(F)(F)c1ccc(-c2cc(-c3c[nH]nc3-c3ccccn3)ccn2)cc1 | %Inh | 20% |
| N#Cc1ccc(Oc2ccc(Nc3ncnc4cc[nH]c34)cc2Cl)cc1 | %Inh | 12% |
| COC(=O)c1cccc(NC(=O)NCCNc2ccnc(Nc3ccc(F)cc3)n2)c1 | %Inh | 11% |
| O=C(Nc1ccccc1)Nc1ccc(Oc2ccc3nccn3n2)cc1 | %Inh | 0% |

Then this compound:
input: Quick one: %Inh for `Cl.c1ccc(Cn2ncc3cc(Nc4ncnc5ccccc45)ccc32)cc1` ?
output: 0%

---

test system: LKB1; construct: gene STK11; details: concentration: 1 μM, replicates: in singlicate; n = 1
READOUT_KIND: %Inh (%)
The reply should contain only the number, in %.

Examples from the recorded data:
| MOLECULE | U | %Inh |
| --- | --- | --- |
| CC(C)N1CCC(n2cnc(-c3ccc(F)cc3)c2-c2ccnc(N)n2)CC1 [SB-223132] | % | 0 |
| Cc1cccc(-c2nc(Nc3ccc4[nH]nnc4c3)c3ccccc3n2)n1 [GW867587] | % | 0 |
| O=C(Nc1ccccc1F)NC1CCN(c2ccnc(Nc3ccc(F)cc3)n2)C1 (stereo not drawn) [GSK1379722] | % | 0 |

input: Quick one: %Inh for Nc1nccc2scc(-c3ccc4c(c3)CCN4C(=O)Cc3cc(F)ccc3F)c12 [GSK2587663] ?
output: 14

input: Quick one: %Inh for COc1ccc(-c2oc3ncnc(N)c3c2-c2ccc(OC)cc2)cc1 [SB-589132] ?
output: 28

input: Quick one: %Inh for COc1cc2c(Nc3cccc(NC(=O)c4ccccc4)c3)ncnc2cc1OCCCN1CCOCC1 [GSK223810] ?
output: 0

input: Quick one: %Inh for Cl.Fc1ccccc1COc1ccc(Nc2ncnc3ccc(-c4nnc(C(F)(F)F)o4)cc23)cc1Cl [GW424170] ?
output: 12

input: Quick one: %Inh for O=c1cc(N2CCOCC2)nc2n(Cc3cccc(Cl)c3)ccn12 [GSK2296823] ?
output: 0

input: Quick one: %Inh for `O=C(Nc1ccccc1)Nc1ccc(Oc2ccc3nccn3n2)cc1` ?
output: 0

input: Quick one: %Inh for FC(F)(F)c1cc(Nc2nccc(-c3c(-c4ccc(Cl)cc4)nn4ncccc34)n2)ccc1Cl [GW829351] ?
output: 0

input: Quick one: %Inh for `C[C@@H]1CCN(C(=O)CO)C[C@@H]1N(C)c1ncnc2[nH]ccc12` ?
output: 0

---

system: MERTK; details: concentration: 1 μM, replicates: in singlicate; n = 1
# %Inh annotations
The reply should contain only the number, in %.

Examples from the recorded data:
| MOLECULE | %Inh, % |
| --- | --- |
| O=C(Nc1ccccc1)Nc1ccc(Oc2ccc3nccn3n2)cc1 | 16 |
| Cc1cc(N2CCC(NS(=O)(=O)c3ccc(F)cc3)CC2)nc(Nc2cccc(C#N)c2)n1.O=C(O)C(F)(F)F | 39 |
| COc1ccc(NC(=O)Nc2ccc(C)c(-c3ccc(C(=O)Nc4ccncc4)cc3)c2)cc1 | 31 |
| COC(=O)c1cccc(NC(=O)NCCNc2ccnc(Nc3ccc(F)cc3)n2)c1 | 18 |

Then this molecule:
input: Quick one: %Inh for CCCc1ccc(S(=O)(=O)NC2CCN(c3ccnc(Nc4ccc(OC)cc4)n3)C2)cc1 (centres unmarked) ?
output: 16

---

test system: PIK4CB; construct: gene PI4KB;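 note: kd values determined as follow-up on hits from a single-replicate KINOMEscan panel screen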
pKd: −log10 of the molar value.
READOUT_KIND: pKd

input: Quick one: pKd for O=C(Nc1ccccc1F)NC1CCN(c2ccnc(Nc3ccc(F)cc3)n2)C1 (stereo not shown) ?
output: < 5.00

---

test system: JNK3; construct: gene MAPK10; details: concentration: 1 μM, replicates: in singlicate; n = 1
Label 1 when %Inh is strictly below 1%; at or above that, label -1.

Study these solved cases before continuing.
| MOLECULE | CLASS_LABEL |
| --- | --- |
| Nc1n[nH]c2nnc(-c3ccccc3)cc12 [SB-517389] | 1 |
| O=C(NCCCN1CCCC1=O)c1cnc(NCc2cc(Cl)ccc2Cl)nc1NC1CCNCC1 | 1 |
| Cl.Fc1ccccc1COc1ccc(Nc2ncnc3ccc(-c4nnc(C(F)(F)F)o4)cc23)cc1Cl [GW424170] | 1 |
| CCC(CC)(CC)n1cnc2c(N)ncnc21 [SKF-97620] | -1 |
| Fc1cccc(COc2ccc(Nc3ncnc4cc[nH]c34)cc2Cl)c1 | -1 |

Let us examine a further case.
input: Below 1% on %Inh? Entry FC(F)(F)c1cc(Nc2nccc(-c3c(-c4ccc(Cl)cc4)nn4ncccc34)n2)ccc1Cl [GW829351]
output: -1

---

tested on: PCTK3; construct: gene CDK18; conditions: concentration: 1 μM, replicates: in singlicate; n = 1
READOUT_KIND: %Inh (%)
The reply should contain only the number, in %.

Examples from the recorded data:
| CPD_SMILES | %Inh, % |
| --- | --- |
| Fc1ccc(-c2ncn(CCCNCc3ccccc3)c2-c2ccncc2)cc1 | 8 |
| Cn1ccc2ncnc(Oc3ccc(NC(=O)Nc4cccnc4)c(Cl)c3)c21 | 0 |
| COc1cc2c(Nc3cccc(NC(=O)c4ccccc4)c3)ncnc2cc1OCCCN1CCOCC1 | 22 |

input: Field: %Inh (PCTK3). Entry: `Nc1nccc2scc(-c3ccc4c(c3)CCN4C(=O)Cc3cc(F)ccc3F)c12`
output: 20

input: Field: %Inh (PCTK3). Entry: `Fc1cccc(COc2ccc(Nc3ncnc4nn5ccccc5c34)cc2Cl)c1`
output: 0

---

# %Inh annotations
test system: GSK3A; conditions: concentration: 1 μM, replicates: in singlicate; n = 1
The reply should contain only the number, in %.

input: Field: %Inh (GSK3A). Entry: Cl.Cn1ccc(-c2cccc(Nc3ccnc4cc(-c5nccs5)ccc34)c2)n1 [GW525701]
output: 0

input: Field: %Inh (GSK3A). Entry: CCCc1ccc(S(=O)(=O)NC2CCN(c3ccnc(Nc4ccc(OC)cc4)n3)C2)cc1 (stereo not shown) [GSK1379737]
output: 7

input: Field: %Inh (GSK3A). Entry: CCn1c(-c2ccncc2)nc2cnccc21 [SB-735216]
output: 9

input: Field: %Inh (GSK3A). Entry: CCc1nc(-c2cccc(N(C)S(=O)(=O)c3ccccc3)c2)c(-c2ccnc(Nc3ccc(N4CCN(C(C)=O)CC4)nc3)n2)s1 [GSK1645895]
output: 11

---

test system: EPHB6; settings: concentration: 1 μM, replicates: in singlicate; n = 1
# %Inh annotations
The reply should contain only the number, in %.

| COMPOUND | %Inh (%) |
| --- | --- |
| Cc1cc(N2CCC(NS(=O)(=O)c3ccc(F)cc3)CC2)nc(Nc2cccc(C#N)c2)n1.O=C(O)C(F)(F)F [GSK1653537] | 8 |

input: Quick one: %Inh for CNc1nccc(-c2c(-c3ccc(F)cc3)ncn2CCCN2CCOCC2)n1 [SB-222516] ?
output: 0

input: Quick one: %Inh for Cn1cc(-c2ccc3c(c2)CCN3C(=O)Cc2cccc(C(F)(F)F)c2)c2c(N)ncnc21 [GSK2606414] ?
output: 18

input: Quick one: %Inh for CS(=O)(=O)CCNCc1nc(-c2ccc3ncnc(Nc4ccc(OCc5cccc(F)c5)c(Cl)c4)c3c2)cs1.Cl [GW583340] ?
output: 19

input: Quick one: %Inh for `COC(=O)c1c(-c2ccccc2)c2cc(Cl)ccc2c(=O)n1Cc1ccc(S(C)(=O)=O)cc1` ?
output: 0

input: Quick one: %Inh for `C[C@@H]1CCN(C(=O)CO)C[C@@H]1N(C)c1ncnc2[nH]ccc12` ?
output: 17

input: Quick one: %Inh for Cl.O=S(=O)(c1cccc(F)c1)c1ccc(Nc2ncnc3cc(Br)sc23)cc1Cl [GSK306886] ?
output: 0

input: Quick one: %Inh for c1ccc(-c2ccc3c(-c4ccnc(Nc5ccc6c(c5)OCCO6)n4)cnn3n2)cc1 [GW818941] ?
output: 0

---

test system: RSK1(Kin.Dom.2-C-terminal); construct: gene RPS6KA1; conditions: concentration: 1 μM, replicates: in singlicate; n = 1
READOUT_KIND: %Inh (%)
The reply should contain only the number, in %.

Examples from the recorded data:
| COMPOUND | U | %Inh |
| --- | --- | --- |
| COc1ccc(-c2oc3ncnc(N)c3c2-c2ccc(OC)cc2)cc1 [SB-589132] | % | 30 |
| CNc1nccc(-c2c(-c3ccc(F)cc3)ncn2CCCN2CCOCC2)n1 [SB-222516] | % | 0 |
| CC(=O)Nc1n[nH]c2ncc(-c3ccccc3)cc12 [SB-548492] | % | 100 |
| Fc1ccc(Nc2nccc(-c3c(-c4ccc(Cl)cc4)nn4ncccc34)n2)cc1F [GW829058] | % | 10 |
| Nc1nc(-c2ccc3c(N)n[nH]c3c2)cc(N2CCC[C@@H](C(=O)Nc3ccccc3)C2)n1.O=C(O)C(F)(F)F.O=C(O)C(F)(F)F [GSK2288359] | % | 13 |

input: Quick one: %Inh for Cl.Cl.c1ccc(-c2cc3ccncc3cc2OC2CCNCC2)cc1 [GSK1122999] ?
output: 21

input: Quick one: %Inh for Nc1nc(-c2cccnc2)c(-c2ccnc3ccccc23)s1 [GW684083] ?
output: 22

input: Quick one: %Inh for c1ccc(-c2ccc3c(-c4ccnc(Nc5ccc6c(c5)OCCO6)n4)cnn3n2)cc1 [GW818941] ?
output: 2

Reference source for all entries: paper PMC5540273
